B1: library; numbered along this chain (parent)
chain: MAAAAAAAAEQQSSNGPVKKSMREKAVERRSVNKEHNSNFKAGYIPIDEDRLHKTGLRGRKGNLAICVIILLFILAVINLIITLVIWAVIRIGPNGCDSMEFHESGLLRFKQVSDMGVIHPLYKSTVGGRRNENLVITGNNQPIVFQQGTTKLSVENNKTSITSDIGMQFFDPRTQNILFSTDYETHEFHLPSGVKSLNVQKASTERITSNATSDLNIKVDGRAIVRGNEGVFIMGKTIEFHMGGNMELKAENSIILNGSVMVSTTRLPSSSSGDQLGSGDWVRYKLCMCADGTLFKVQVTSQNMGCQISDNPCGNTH

variants of: B1; experiment: SGCB cell-surface expression functional score (HA stain, bin4 vs bin1, normalised to synonymous) (log10 ratio); higher = more cell-surface SGCB (functional)
Parameter: SGCB cell-surface expression functional score (log10)

>  <Variant spec>
T150V

>  <Measured>
-0.25

$$$$
>  <Variant spec>
S272C

>  <Measured>
-0.03

$$$$
>  <Variant spec>
C314Q

>  <Measured>
0.15

$$$$
>  <Variant spec>
F180P

>  <Measured>
-1.31

$$$$
>  <Variant spec>
P313V

>  <Measured>
0.23

$$$$
>  <Variant spec>
K219V

>  <Measured>
-0.18

$$$$
>  <Variant spec>
I119C

>  <Measured>
-0.49

$$$$
>  <Variant spec>
M289V

>  <Measured>
-0.24

$$$$
>  <Variant spec>
G93F

>  <Measured>
-1.18

$$$$
>  <Variant spec>
A88K

>  <Measured>
0.62

$$$$
>  <Variant spec>
A8G

>  <Measured>
0.3

$$$$
>  <Variant spec>
S125Q

>  <Measured>
-0.7

$$$$
>  <Variant spec>
N63K

>  <Measured>
0.24

$$$$
>  <Variant spec>
M235W

>  <Measured>
0.91

$$$$
>  <Variant spec>
L57D

>  <Measured>
-0.4

$$$$
>  <Variant spec>
L75N

>  <Measured>
-0.4

$$$$
>  <Variant spec>
Q308S

>  <Measured>
-0.37

$$$$
>  <Variant spec>
E185I

>  <Measured>
-0.23

$$$$
>  <Variant spec>
K41I

>  <Measured>
-0.28

$$$$
>  <Variant spec>
S99G

>  <Measured>
-0.07

$$$$
>  <Variant spec>
T55F

>  <Measured>
0.18

$$$$
>  <Variant spec>
G56T

>  <Measured>
0.4

$$$$
